All figures here come from ChEMBL document CHEMBL3352552.

# TARGET_OR_SYSTEM: ATP-dependent Clp protease proteolytic subunit (Escherichia coli (strain K12)) (UniProt P0A6G7)
# Sequence (P0A6G7 whole entry): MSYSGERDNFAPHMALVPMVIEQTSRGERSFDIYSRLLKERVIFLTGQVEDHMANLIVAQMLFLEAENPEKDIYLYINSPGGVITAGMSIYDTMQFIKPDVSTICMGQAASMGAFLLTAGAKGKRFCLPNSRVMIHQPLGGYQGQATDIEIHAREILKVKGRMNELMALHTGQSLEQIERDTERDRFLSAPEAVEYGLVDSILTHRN
# PROTOCOL: Activation of Escherichia coli ClpP assessed as degradation of casein-FITC substrate at 5 uM fluorescence-based biochemical assay
Active and inactive are the calls of the source. The rule behind the calls is not given here. Where a SMILES comes first, the peptide text is derived from it. Bridges are numbered along the chain shown (N, C = ends). [ ]: non-standard residue; d: D form. The star is where a group is joined. Octatrienoyl(2E,4E,6E) = C/C=C/C=C/C=C/C(=O)*; Hexadienoyl(2E,4E) = C/C=C/C=C/C(=O)*; Pro(4R-Me) = C[C@H]1CN[C@H](C(=O)O)C1; NMeA = CN[C@@H](C)C(=O)O; X1 = CCC/C=C/C=C/C(=O)*
API: response.call in class 1 (active), class 0 (inactive)

// query Short answer needed: outcome of this test for C/C=C/C=C/C(=O)N[C@@H](Cc1ccccc1)C(=O)N[C@H]1COC(=O)[C@@H]2C[C@@H](C)CN2C(=O)[C@H](C)NC(=O)[C@H](C)N(C)C(=O)[C@@H]2CCCN2C1=O ({Hexadienoyl(2E,4E)}-FSP[NMeA]A[Pro(4R-Me)]; ester 2-C) ?
// result class 0

// query # repeat for C/C=C/C=C/C=C/C(=O)N[C@@H](Cc1ccccc1)C(=O)N[C@H]1COC(=O)[C@@H]2CCCN2C(=O)[C@H](C)NC(=O)[C@H](C)N(C)C(=O)[C@@H]2CCCN2C1=O ({Octatrienoyl(2E,4E,6E)}-FSP[NMeA]AP; ester 2-C)
// result class 1

// query # repeat for C/C=C/C=C/C=C/C(=O)N[C@@H](Cc1ccccc1)C(=O)N[C@H]1COC(=O)[C@@H]2C[C@@H](C)CN2C(=O)[C@H](C)NC(=O)[C@H](C)N(C)C(=O)[C@@H]2CCCN2C1=O ({Octatrienoyl(2E,4E,6E)}-FSP[NMeA]A[Pro(4R-Me)]; ester 2-C)
// result class 1

// query # repeat for C[C@@H]1C[C@H]2C(=O)OC[C@H](NC(=O)[C@H](Cc3ccccc3)NC(=O)/C=C/C=C/CO)C(=O)N3CCC[C@H]3C(=O)N(C)[C@@H](C)C(=O)N[C@@H](C)C(=O)N2C1 (stereo in doubt)
// result class 0

// query # repeat for C/C=C/C=C/C(=O)N[C@@H](Cc1ccccc1)C(=O)N[C@H]1COC(=O)[C@@H]2CCCN2C(=O)[C@H](C)NC(=O)[C@H](C)N(C)C(=O)[C@@H]2CCCN2C1=O ({Hexadienoyl(2E,4E)}-FSP[NMeA]AP; ester 2-C)
// result class 0

// query # repeat for CCC/C=C/C=C/C(=O)N[C@@H](Cc1ccccc1)C(=O)N[C@H]1COC(=O)[C@@H]2C[C@@H](C)CN2C(=O)[C@H](C)NC(=O)[C@H](C)N(C)C(=O)[C@@H]2CCCN2C1=O (X1-FSP[NMeA]A[Pro(4R-Me)]; ester 2-C)
// result class 1
